Molecular target: human somatostatin receptor subtype 2 (Homo sapiens)
Sequence (P30874 whole entry): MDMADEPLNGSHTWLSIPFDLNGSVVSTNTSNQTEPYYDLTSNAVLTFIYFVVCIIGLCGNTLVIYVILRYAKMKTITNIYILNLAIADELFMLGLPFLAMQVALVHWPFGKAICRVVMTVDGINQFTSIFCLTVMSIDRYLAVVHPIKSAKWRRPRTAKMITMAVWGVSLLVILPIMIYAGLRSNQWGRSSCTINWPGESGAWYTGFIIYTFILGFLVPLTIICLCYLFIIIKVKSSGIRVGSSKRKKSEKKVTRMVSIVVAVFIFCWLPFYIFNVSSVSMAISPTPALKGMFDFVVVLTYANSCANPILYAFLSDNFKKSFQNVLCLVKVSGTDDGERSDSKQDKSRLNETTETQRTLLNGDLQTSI
Test: cAMP assay for SST2R (inhibition of cAMP in CHO-K1 cells)
Settings: Table B; inhibition of cAMP via human SST2 receptor; read-out: SST2 potency
Attribute: EC50

// worked examples, EC50 included
chemicalstring=Cc1cccc2[nH]c(-c3cncc(C(=O)N[C@@H](C)C(F)(F)F)c3N3CC[C@](C)(N)C3)nc12 quantitykind=EC50 datavalue="10 to 100 nM"
chemicalstring=C[C@]1(N)CCN(c2c(C(=O)NCC3(F)CCC3)cncc2-c2cc(F)cc(F)c2)C1 quantitykind=EC50 datavalue="100 to 1000 nM"
chemicalstring=CC1(C)CC(NC(=O)c2cncc(-c3cc(F)cc(F)c3)c2N2CC[C@](C)(N)C2)C1 quantitykind=EC50 datavalue="100 to 1000 nM"
chemicalstring=C[C@H](NC(=O)c1cnc(OCC2CC2)c(-c2cc(F)cc(F)c2)c1N1CC[C@](C)(N)C1)C1CC1 quantitykind=EC50 datavalue="10 to 100 nM"

What does the data say about its EC50? Entry: `Cc1ncc(C(=O)N[C@@H](C)C(F)(F)F)c(N2CC[C@H](N)C2)c1-c1cc(F)cc(Cl)c1`
100 to 1000 nM

What does the data say about its EC50? Entry: `CCOC(=O)CCOc1ncc(C(=O)NC2CCC(F)(F)CC2)c(N2CC[C@H](N)C2)c1-c1cc(F)cc(F)c1`
> 1000 nM

What does the data say about its EC50? Entry: `C[C@]1(N)CCN(c2c(C(=O)NC3CCCC3)cnc(C#N)c2-c2cc(F)cc(F)c2)C1`
10 to 100 nM

What does the data say about its EC50? Entry: `C[C@]1(N)CCN(c2c(C(=O)NC3CC(F)(F)C3)cncc2-c2cc(F)cc(Cl)c2)C1`
100 to 1000 nM

What does the data say about its EC50? Entry: `Cc1ncc(C(=O)NCc2ccon2)c(N2CC[C@](C)(N)C2)c1-c1cc(F)cc(Cl)c1`
> 1000 nM

What does the data say about its EC50? Entry: `C[C@H](NC(=O)c1cnc(C#N)c(-c2cc(F)cc(F)c2)c1N1CC[C@H](N)C1)C(F)(F)F`
100 to 1000 nM

What does the data say about its EC50? Entry: `C[C@H](NC(=O)c1cnc(C#N)c(-c2cc(F)cc(F)c2)c1N1CC[C@](C)(N)C1)c1ccccn1`
> 1000 nM

What does the data say about its EC50? Entry: `CCC(CC)NC(=O)c1cnc(C#N)c(-c2ccnc(C(F)(F)F)c2)c1N1CC[C@](C)(N)C1`
100 to 1000 nM

====

Attribute: EC50
Target: human somatostatin receptor subtype 2 (Homo sapiens)
Assay: cAMP assay for SST2R (inhibition of cAMP in CHO-K1 cells)
Conditions: Table B; inhibition of cAMP via human SST2 receptor; read-out: SST2 potency

compound="CC(NC(=O)c1cnc(C#N)c(-c2cc(F)cc(F)c2)c1N1CC[C@](C)(N)C1)c1ccon1 (stereo partly shown)" datavalue="> 1000 nM"

Recorded EC50 for `Cc1cccc2[nH]c(-c3cncc(C(=O)N(C)[C@@H](C)C4CC4)c3N3CC[C@](C)(N)C3)nc12` with human somatostatin receptor subtype 2 (Homo sapiens), please?
10 to 100 nM

Recorded EC50 for `COc1cc(C#N)cc(-c2cncc(C(=O)NC34CC(C3)C4)c2N2CC[C@](C)(N)C2)c1` with human somatostatin receptor subtype 2 (Homo sapiens), please?
100 to 1000 nM

Recorded EC50 for `COc1ncc(C(=O)N[C@@H](C)C2CC2)c(N2CC[C@](C)(N)C2)c1-c1ccnc(C(F)(F)F)c1` with human somatostatin receptor subtype 2 (Homo sapiens), please?
> 1000 nM

src = patent US12600709B2
